Data provenance is ChEMBL document CHEMBL3352260.

Entries annotated with measured IC50
Molecular target: Beta-glucosidase (Homo sapiens)
Sequence (Q9HCG7 whole entry): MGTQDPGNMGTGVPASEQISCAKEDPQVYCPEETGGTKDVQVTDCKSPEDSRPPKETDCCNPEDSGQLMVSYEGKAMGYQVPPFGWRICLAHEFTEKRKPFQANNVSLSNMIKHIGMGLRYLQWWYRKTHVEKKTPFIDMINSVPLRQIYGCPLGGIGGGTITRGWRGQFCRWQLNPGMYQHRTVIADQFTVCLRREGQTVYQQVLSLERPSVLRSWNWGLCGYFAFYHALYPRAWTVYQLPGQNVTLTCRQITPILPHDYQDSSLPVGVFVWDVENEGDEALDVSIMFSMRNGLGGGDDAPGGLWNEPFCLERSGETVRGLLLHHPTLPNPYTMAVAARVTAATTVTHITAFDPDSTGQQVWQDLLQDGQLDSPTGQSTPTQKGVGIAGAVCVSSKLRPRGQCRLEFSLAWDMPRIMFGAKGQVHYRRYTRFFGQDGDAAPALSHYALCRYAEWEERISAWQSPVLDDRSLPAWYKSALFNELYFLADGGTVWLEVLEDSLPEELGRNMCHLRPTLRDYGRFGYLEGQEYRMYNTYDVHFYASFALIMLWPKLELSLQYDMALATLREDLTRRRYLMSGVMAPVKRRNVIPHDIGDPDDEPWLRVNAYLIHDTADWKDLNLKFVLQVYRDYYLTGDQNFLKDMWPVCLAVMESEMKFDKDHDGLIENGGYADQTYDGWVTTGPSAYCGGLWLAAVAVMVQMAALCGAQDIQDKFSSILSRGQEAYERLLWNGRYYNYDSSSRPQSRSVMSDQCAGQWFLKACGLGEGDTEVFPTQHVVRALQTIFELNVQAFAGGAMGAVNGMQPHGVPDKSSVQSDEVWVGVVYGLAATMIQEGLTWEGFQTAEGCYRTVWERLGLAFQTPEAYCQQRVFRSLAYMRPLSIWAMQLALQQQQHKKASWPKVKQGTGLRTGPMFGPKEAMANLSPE
Dear colleague, please return just the value in nM, with no unit written.

Look over these answered cases.
| COMPOUND | UNIT SPEC | RECORDED MEASUREMENT |
| --- | --- | --- |
| O=C(CCCCCN1C[C@H](O)[C@@H](O)[C@H](O)[C@@H]1CO)NC12CC3CC(CC(C3)C1)C2 | nM | 15 |
| OC[C@@H]1[C@@H](O)[C@H](O)[C@@H](O)CN1CCCCCOCc1ccc(-c2cncnc2)cc1 | nM | 25 |
| CC(C)CCC[C@@H](C)[C@H]1CC[C@H]2[C@@H]3CC=C4C[C@@H](OCCCCCN5C[C@H](O)[C@@H](O)[C@H](O)[C@@H]5CO)CC[C@]4(C)[C@H]3CC[C@]12C | nM | 20 |

Could you now consider this next compound?
Problem: Using known records, supply IC50 for OC[C@@H]1[C@@H](O)[C@H](O)[C@@H](O)CN1CCCCCOCc1cc2ccccc2c2ccccc12
Result: 100
